- system: T1, human CD28 (human, UniProt P10747 19-220)
- T1 construct: Endogenous CD28 on Jurkat/IL2 reporter cells
- test protocol: flow cytometry on Jurkat cells (CD28)
measure: MFI at 33.3 nM (MFI)
Number in MFI, nothing else.

Prompt line: Any idea what MFI at 33.3 nM was measured for CD80 E35D/D46V/M47L/V68M/L85Q/E88D IgV-Fc, GS(G4S)5 linker (Fc fusion, not shown: a dimerising Fc or GST) VIHVTKEVKEVATLSCGHNVSVEELAQTRIYWQKDKKMVLTMMSGVLNIWPEYKNRTIFDITNNLSIMILALRPSDEGTYECVVQKYDKDAFKREHLAEVTLSVKADGSGGGGSGGGGSGGGGSGGGGSGGGGS ?
Response line: 143

Prompt line: Then CD80 E35D/M47V/N48K/V68M/K89N IgV-Fc, GS(G4S)3 linker (Fc fusion, not shown: a dimerising Fc or GST) VIHVTKEVKEVATLSCGHNVSVEELAQTRIYWQKDKKMVLTMMSGDVKIWPEYKNRTIFDITNNLSIMILALRPSDEGTYECVVLKYENDAFKREHLAEVTLSVKADGSGGGGSGGGGSGGGGS ?
Response line: 2110
